Examples of molecules with documented melting point follow.

Examples with their reported melting point follow.
N#Cc1ccc(C(F)(F)F)nc1OC(C[C@H](N)CO)c1ccno1.O=C(O)/C=C/C(=O)O (some centres unmarked) | 150 to 152 °C
CCC[C@@H](C[C@H](N)CO)Oc1cc(Cl)c(F)cc1C#N.O=C(O)C(=O)O | 171 to 172 °C
Cl.Cl.N#Cc1ccc(Br)cc1S[C@H](C[C@H](N)CO)c1cccnc1 | 278 to 280 °C
Cc1nc(O[C@H](C[C@H](N)CO)c2nccs2)c(C#N)cc1F.Cl | 148 to 150 °C
N#Cc1ncc(C(F)(F)F)cc1S[C@H](C[C@H](N)CO)c1ccccc1.O=C(O)C(=O)O | 147 to 149 °C

Enquiry: Which measured melting point value corresponds to CC(C)(O)[C@@H](N)C[C@@H](Oc1cc(Cl)c(F)cc1C#N)c1ccccc1.O=C(O)C(=O)O ?
Return: 80 °C

Enquiry: Which measured melting point value corresponds to N#Cc1ccc(S[C@H](C[C@H](N)CO)c2ccccc2)c(Cl)c1.O=C(O)C(=O)O ?
Return: 142 to 144 °C

Enquiry: Which measured melting point value corresponds to N#Cc1ccc(CO)nc1S[C@H](C[C@H](N)CO)c1ccccc1.O=C(O)/C=C/C(=O)O ?
Return: 147 to 149 °C

* * *

Biological target: Nitric oxide synthase from induced murine macrophage cell line J774A-1 (Mus musculus, UniProt P29477)
Construct: The reaction is started by adding 50 μl of cell lysate (prepared as above); endogenous in cells; crude cell lysate
Experiment: Screen 1: nitric oxide synthase inhibition, conversion of 3H-L-arginine into 3H-L-citrulline, lysate of induced J774A-1 cells
Conditions: J774A-1 cell lysate (LPS/IFNg induced), 1 hour at room temperature; read-out: IC50 (concentration of drug substance which gives 50% enzyme inhibition in the assay)
Excerpt: The activity of compounds of formula (I), or a pharmaceutically acceptable salt, enantiomer or racemate thereof, may be screened for nitric oxide synthase inhibiting activity by a procedure based on that of Förstermann et al., Eur. J. Pharm., 1992, 225, 161-165. Nitric oxide synthase converts ^3H-L-arginine into ^3H-L-citrulline which can be separated by cation exchange chromatography and quantified by liquid scintillation counting. […]
quantity_measured: pIC50
Scale explanation: pIC50 corresponds to minus log10 of a concentration expressed in moles per litre.

Enquiry: Which measured pIC50 value corresponds to N=C(N)NN ?
Return: 5.00

* * *

Examples of compounds with documented melting point follow.

CC(=O)c1ccc(C#N)c(S[C@H](C[C@H](N)CO)c2ccccc2)n1.Cl [Example 20] | 78 °C

Enquiry: Which measured melting point value corresponds to Cl.Cl.N#Cc1ccc(C(F)(F)F)cc1S[C@H](C[C@H](N)CO)c1cccnc1 [Example 55] ?
Return: 238 to 240 °C

Enquiry: Which measured melting point value corresponds to COc1cc(S[C@H](C[C@H](N)CO)c2ccccc2F)c(C#N)cn1.O=C(O)C(=O)O [Example 35] ?
Return: 179 to 185 °C

Enquiry: Which measured melting point value corresponds to N#Cc1cccnc1S[C@H](C[C@H](N)CO)c1ccccc1.O=C(O)/C=C/C(=O)O [Example 22] ?
Return: 67 to 69 °C

* * *

Examples of compounds with documented melting point follow.

Examples with their reported melting point follow.
COc1cc(S[C@H](C[C@@H](N)CO)c2ccccc2)c(C#N)cn1.O=C(O)/C=C/C(=O)O | 221 to 223 °C
COc1cc(S[C@H](C[C@H](N)CO)c2ccccc2)c(Br)cn1 | 178 to 180 °C

Enquiry: Which measured melting point value corresponds to COc1cc(S[C@H](C[C@H](N)CO)c2ccccc2)c(C#N)cn1 ?
Return: 172 to 173 °C

Enquiry: Which measured melting point value corresponds to Cl.Cl.N#Cc1cc(F)c(Cl)cc1S[C@H](C[C@H](N)CO)c1cccnc1 ?
Return: 252 to 255 °C

Enquiry: Which measured melting point value corresponds to COc1cc(S[C@@H](C[C@H](N)CO)c2ccccc2)c(C#N)cn1.O=C(O)/C=C/C(=O)O ?
Return: 213 to 228 °C

Enquiry: Which measured melting point value corresponds to N#Cc1cnc(OC(F)F)cc1S[C@H](C[C@H](N)CO)c1ccccc1.O=C(O)/C=C/C(=O)O ?
Return: 144 to 146 °C

Enquiry: Which measured melting point value corresponds to N#Cc1cc(F)c(Cl)cc1O[C@H](C[C@H](N)CO)c1scnc1Cl.O=C(O)/C=C/C(=O)O ?
Return: 177 to 178 °C

Enquiry: Which measured melting point value corresponds to COc1cc(S[C@@H](C[C@@H](N)CO)c2ccccc2)c(C#N)cn1.O=C(O)/C=C/C(=O)O ?
Return: 162.5 to 163 °C

Enquiry: Which measured melting point value corresponds to Cl.N#Cc1ccc(Cl)cc1S[C@H](C[C@H](N)CO)c1cncnc1 ?
Return: 120 to 130 °C

Enquiry: Which measured melting point value corresponds to N#Cc1ccc(C(F)(F)F)nc1O[C@H](C[C@H](N)CO)c1ccc(F)cc1.O=C(O)C(=O)O ?
Return: 109 to 114 °C

* * *

quantity_measured: melting point

Examples with their reported melting point follow.
N#Cc1cc(F)c(Cl)cc1O[C@H](C[C@H](N)CO)c1ccsc1.O=C(O)C(=O)O [Example 54] | 111 to 115 °C
N#Cc1cc(F)ccc1O[C@H](C[C@H](N)CO)c1cncs1.O=C(O)/C=C/C(=O)O [Example 45] | 163 to 165 °C

Now look at this entry.
Enquiry: Which measured melting point value corresponds to CCN[C@H](CO)C[C@@H](Oc1cc(Cl)c(F)cc1C#N)c1nccs1.O=C(O)C(=O)O [Example 44] ?
Return: 55 to 80 °C

* * *

Examples of compounds with documented melting point follow.

Examples with their reported melting point follow.
Cc1ccc(C#N)c(SC(C[C@H](N)CO)c2ccno2)n1.O=C(O)/C=C/C(=O)O (some centres unmarked) | 150 to 152 °C
COc1cc(S[C@H](C[C@H](N)CO)c2sccc2F)c(C#N)cn1.O=C(O)/C=C/C(=O)O | 177 to 178 °C
CCOc1cc(S[C@H](C[C@H](N)CO)c2ccccc2)c(C#N)cn1 | 169.5 to 171.5 °C

Enquiry: Which measured melting point value corresponds to COc1cc(S[C@H](C[C@H](N)CO)c2ccccc2)c(Cl)cn1 ?
Return: 191 to 193 °C

Enquiry: Which measured melting point value corresponds to CNc1cc(S[C@H](C[C@H](N)CO)c2ccccc2)c(C#N)cn1.Cl.Cl ?
Return: 206 to 208 °C

Source listed as patent US20040242871A1.
